biological target: bile salt export pump (BSEP) (Homo sapiens); conditions: IC50 ratio compared to Debio 025
Sequence (O95342 whole entry): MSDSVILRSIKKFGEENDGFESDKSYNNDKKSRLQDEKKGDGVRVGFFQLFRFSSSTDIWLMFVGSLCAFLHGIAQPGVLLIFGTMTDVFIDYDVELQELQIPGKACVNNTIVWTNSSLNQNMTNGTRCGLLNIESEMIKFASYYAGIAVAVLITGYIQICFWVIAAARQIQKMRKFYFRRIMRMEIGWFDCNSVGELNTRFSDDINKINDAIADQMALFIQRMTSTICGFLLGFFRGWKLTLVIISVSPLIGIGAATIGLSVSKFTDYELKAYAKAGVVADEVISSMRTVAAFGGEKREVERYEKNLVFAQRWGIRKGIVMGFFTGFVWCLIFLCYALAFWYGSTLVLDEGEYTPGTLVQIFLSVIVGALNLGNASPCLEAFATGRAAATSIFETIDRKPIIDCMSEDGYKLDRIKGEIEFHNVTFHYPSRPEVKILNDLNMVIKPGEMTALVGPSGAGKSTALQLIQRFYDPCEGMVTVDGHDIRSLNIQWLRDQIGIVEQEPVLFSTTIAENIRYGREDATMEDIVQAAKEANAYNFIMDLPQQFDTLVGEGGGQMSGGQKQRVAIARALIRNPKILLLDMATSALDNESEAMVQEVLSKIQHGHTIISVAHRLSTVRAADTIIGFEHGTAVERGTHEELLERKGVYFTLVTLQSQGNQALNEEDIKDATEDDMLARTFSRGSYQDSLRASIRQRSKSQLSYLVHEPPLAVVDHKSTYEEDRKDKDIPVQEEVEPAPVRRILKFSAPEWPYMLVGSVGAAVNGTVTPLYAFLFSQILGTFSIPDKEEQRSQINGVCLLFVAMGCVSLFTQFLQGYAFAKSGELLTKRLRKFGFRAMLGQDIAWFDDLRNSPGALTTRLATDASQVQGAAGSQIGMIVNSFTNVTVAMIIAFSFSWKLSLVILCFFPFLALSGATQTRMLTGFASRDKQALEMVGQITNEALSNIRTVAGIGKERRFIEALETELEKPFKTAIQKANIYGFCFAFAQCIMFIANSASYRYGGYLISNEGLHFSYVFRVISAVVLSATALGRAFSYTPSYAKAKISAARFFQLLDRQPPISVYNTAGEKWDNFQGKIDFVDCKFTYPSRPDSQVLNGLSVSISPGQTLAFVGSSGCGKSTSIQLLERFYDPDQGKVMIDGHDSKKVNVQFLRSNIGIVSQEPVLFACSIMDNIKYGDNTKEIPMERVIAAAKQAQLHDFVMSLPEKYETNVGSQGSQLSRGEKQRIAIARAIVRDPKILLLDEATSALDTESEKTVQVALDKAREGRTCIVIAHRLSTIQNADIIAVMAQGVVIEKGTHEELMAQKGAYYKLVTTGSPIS
Square brackets hold non-standard residues; d marks the D form. Peptide text beside a SMILES is read from it. MeBmt = C/C=C/C[C@@H](C)[C@@H](O)[C@H](NC)C(=O)O; NEtVal = CCN[C@H](C(=O)O)C(C)C; NMeL = CN[C@@H](CC(C)C)C(=O)O; NMeV = CN[C@H](C(=O)O)C(C)C; dHiv = CC(C)[C@@H](O)C(=O)O; dNMeA = CN[C@H](C)C(=O)O; Abu = CC[C@H](N)C(=O)O
value.type: BSEP fold Debio 025
Write no unit; give the number alone.

Lab note: measured BSEP fold Debio 025 of C/C=C/C[C@@H](C)[C@@H](O)[C@H]1C(=O)N[C@@H](C(C)C)C(=O)N(C)[C@H](C)C(=O)N(CC)[C@@H](C(C)C)C(=O)N[C@@H](CC(C)C)C(=O)N(C)[C@@H](CC(C)C)C(=O)N[C@@H](C)C(=O)O[C@H](C(C)C)C(=O)N(C)[C@@H](CC(C)C)C(=O)N[C@@H](CC(C)C)C(=O)N(C)[C@@H](C(C)C)C(=O)N1C [(Ih)] (cyclo(A[dHiv][NMeL]L[NMeV][MeBmt]V[dNMeA][NEtVal]L[NMeL])) was 0.80

Lab note: measured BSEP fold Debio 025 of C/C=C/C[C@@H](C)[C@@H](O)[C@H]1C(=O)N[C@@H](CC)C(=O)N(C)[C@H](C)C(=O)N(CC)[C@@H](C(C)C)C(=O)N[C@@H](C(C)C)C(=O)N(C)[C@@H](CC(C)C)C(=O)N[C@@H](C)C(=O)N[C@H](C)C(=O)N(C)[C@@H](CC(C)C)C(=O)N(C)[C@@H](CC(C)C)C(=O)N(C)[C@@H](C(C)C)C(=O)N1C [Debio 025, [D-MeAla]^3-[EtVal]^4-CsA, reference compound] was 1

Lab note: measured BSEP fold Debio 025 of C/C=C/C[C@@H](C)[C@@H](O)[C@H]1C(=O)N[C@@H](CC)C(=O)N(C)[C@H](C)C(=O)N(CC)[C@@H](C(C)C)C(=O)N[C@@H](CC(C)C)C(=O)N(C)[C@@H](CC(C)C)C(=O)N[C@@H](C)C(=O)O[C@H](C(C)C)C(=O)N(C)[C@@H](CC(C)C)C(=O)N[C@@H](CC(C)C)C(=O)N(C)[C@@H](C(C)C)C(=O)N1C [(Ib)] (cyclo(A[dHiv][NMeL]L[NMeV][MeBmt][Abu][dNMeA][NEtVal]L[NMeL])) was 1.6

Lab note: measured BSEP fold Debio 025 of C/C=C/C[C@@H](C)[C@@H](O)[C@H]1C(=O)N[C@@H](CC)C(=O)N(C)[C@H](C)C(=O)N(C)[C@@H](C(C)C)C(=O)N[C@@H](CC(C)C)C(=O)N(C)[C@@H](CC(C)C)C(=O)NCC(=O)O[C@H](C(C)C)C(=O)N(C)[C@@H](CC(C)C)C(=O)N[C@@H](CC(C)C)C(=O)N(C)[C@@H](C(C)C)C(=O)N1C [(Ia)] (cyclo([Abu][dNMeA][NMeV]L[NMeL]G[dHiv][NMeL]L[NMeV][MeBmt])) was 0.60

Lab note: measured BSEP fold Debio 025 of C/C=C/C[C@@H](C)[C@@H](O)[C@H]1C(=O)N[C@@H](C(C)C)C(=O)N(C)[C@H](C)C(=O)N(C)[C@@H](C(C)C)C(=O)N[C@@H]([C@@H](C)CC)C(=O)N(C)[C@@H](CC(C)C)C(=O)NCC(=O)O[C@H](C(C)C)C(=O)N(C)[C@@H](CC(C)C)C(=O)N[C@@H](CC(C)C)C(=O)N(C)[C@@H](C(C)C)C(=O)N1C [(Ic)] (cyclo(G[dHiv][NMeL]L[NMeV][MeBmt]V[dNMeA][NMeV]I[NMeL])) was 1.5

Consider the record given below.
Lab note: measured BSEP fold Debio 025 of C/C=C/C[C@@H](C)[C@@H](O)[C@H]1C(=O)N[C@@H](C(C)C)C(=O)N(C)[C@H](C)C(=O)N(C)[C@@H](C(C)C)C(=O)N[C@@H](CC(C)C)C(=O)N(C)[C@@H](CC(C)C)C(=O)NCC(=O)O[C@H](C(C)C)C(=O)N(C)[C@@H](CC(C)C)C(=O)N[C@@H](CC(C)C)C(=O)N(C)[C@@H](C(C)C)C(=O)N1C [(If)] (cyclo(G[dHiv][NMeL]L[NMeV][MeBmt]V[dNMeA][NMeV]L[NMeL])) was 0.50

----------
molecular target: organic anion transporting polypeptide 1B1 (OATP1B1) (Homo sapiens, UniProt Q9Y6L6)
Sequence (Q9Y6L6 whole entry): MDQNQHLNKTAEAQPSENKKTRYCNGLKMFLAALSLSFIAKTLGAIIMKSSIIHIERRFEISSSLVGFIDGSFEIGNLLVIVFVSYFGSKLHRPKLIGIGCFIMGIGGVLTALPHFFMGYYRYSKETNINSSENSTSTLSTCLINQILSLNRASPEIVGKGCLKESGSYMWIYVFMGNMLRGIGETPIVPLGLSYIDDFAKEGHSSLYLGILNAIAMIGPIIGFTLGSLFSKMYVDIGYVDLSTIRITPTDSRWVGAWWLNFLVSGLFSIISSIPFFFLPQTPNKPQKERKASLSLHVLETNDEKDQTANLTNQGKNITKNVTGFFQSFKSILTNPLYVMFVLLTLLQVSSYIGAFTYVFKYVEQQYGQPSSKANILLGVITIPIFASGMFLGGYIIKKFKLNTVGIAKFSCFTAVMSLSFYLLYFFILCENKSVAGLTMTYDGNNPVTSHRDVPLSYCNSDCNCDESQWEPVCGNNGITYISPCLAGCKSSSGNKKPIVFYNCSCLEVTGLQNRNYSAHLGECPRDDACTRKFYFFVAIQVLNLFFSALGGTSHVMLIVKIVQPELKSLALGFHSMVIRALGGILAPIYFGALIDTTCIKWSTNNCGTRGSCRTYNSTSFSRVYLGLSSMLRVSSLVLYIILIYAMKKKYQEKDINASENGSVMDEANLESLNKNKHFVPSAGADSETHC
Square brackets hold non-standard residues; d marks the D form. Peptide text beside a SMILES is read from it. MeBmt = C/C=C/C[C@@H](C)[C@@H](O)[C@H](NC)C(=O)O; NEtVal = CCN[C@H](C(=O)O)C(C)C; NMeL = CN[C@@H](CC(C)C)C(=O)O; NMeV = CN[C@H](C(=O)O)C(C)C; dHiv = CC(C)[C@@H](O)C(=O)O; NMeA = CN[C@@H](C)C(=O)O; dNMeA = CN[C@H](C)C(=O)O; Abu = CC[C@H](N)C(=O)O
value.type: IC50 (µM)
Numeric answer only, unit µM assumed.

Use the examples below as a reference point.
Lab note: measured IC50 of C/C=C/C[C@@H](C)[C@@H](O)[C@H]1C(=O)N[C@@H](CC)C(=O)N(C)[C@H](C)C(=O)N(CC)[C@@H](C(C)C)C(=O)N[C@@H](C(C)C)C(=O)N(C)[C@@H](CC(C)C)C(=O)N[C@@H](C)C(=O)N[C@H](C)C(=O)N(C)[C@@H](CC(C)C)C(=O)N(C)[C@@H](CC(C)C)C(=O)N(C)[C@@H](C(C)C)C(=O)N1C [Debio 025, [D-MeAla]^3-[EtVal]^4-CsA, reference compound] was 0.42

Lab note: measured IC50 of C/C=C/C[C@@H](C)[C@@H](O)[C@H]1C(=O)N[C@@H](C(C)C)C(=O)N(C)[C@H](C)C(=O)N(C)[C@@H](C(C)C)C(=O)N[C@@H]([C@@H](C)CC)C(=O)N(C)[C@@H](CC(C)C)C(=O)NCC(=O)O[C@H](C(C)C)C(=O)N(C)[C@@H](CC(C)C)C(=O)N[C@@H](CC(C)C)C(=O)N(C)[C@@H](C(C)C)C(=O)N1C [(Ic)] (cyclo(G[dHiv][NMeL]L[NMeV][MeBmt]V[dNMeA][NMeV]I[NMeL])) was 2.3

Lab note: measured IC50 of C/C=C/C[C@@H](C)[C@@H](O)[C@H]1C(=O)N[C@@H](CC)C(=O)N(C)[C@H](C)C(=O)N(CC)[C@@H](C(C)C)C(=O)N[C@@H](CC(C)C)C(=O)N(C)[C@@H](CC(C)C)C(=O)N[C@@H](C)C(=O)O[C@H](C(C)C)C(=O)N(C)[C@@H](CC(C)C)C(=O)N[C@@H](CC(C)C)C(=O)N(C)[C@@H](C(C)C)C(=O)N1C [(Ib)] (cyclo(A[dHiv][NMeL]L[NMeV][MeBmt][Abu][dNMeA][NEtVal]L[NMeL])) was 6.2

Others:
Lab note: measured IC50 of C/C=C/C[C@@H](C)[C@@H](O)[C@H]1C(=O)N[C@@H](CC)C(=O)N(C)[C@H](C)C(=O)N(C)[C@@H](C(C)C)C(=O)N[C@@H](CC(C)C)C(=O)N(C)[C@@H](CC(C)C)C(=O)NCC(=O)O[C@H](C(C)C)C(=O)N(C)[C@@H](CC(C)C)C(=O)N[C@@H](CC(C)C)C(=O)N(C)[C@@H](C(C)C)C(=O)N1C [(Ia)] (cyclo([Abu][dNMeA][NMeV]L[NMeL]G[dHiv][NMeL]L[NMeV][MeBmt])) was 18

Lab note: measured IC50 of C/C=C/C[C@@H](C)[C@@H](O)[C@H]1C(=O)N[C@@H](C(C)C)C(=O)N(C)[C@H](C)C(=O)N(C)[C@@H](C(C)C)C(=O)N[C@@H](CC(C)C)C(=O)N(C)[C@@H](CC(C)C)C(=O)NCC(=O)O[C@H](C(C)C)C(=O)N(C)[C@@H](CC(C)C)C(=O)N[C@@H](CC(C)C)C(=O)N(C)[C@@H](C(C)C)C(=O)N1C [(If)] (cyclo(G[dHiv][NMeL]L[NMeV][MeBmt]V[dNMeA][NMeV]L[NMeL])) was 15

Lab note: measured IC50 of C/C=C/C[C@@H](C)[C@@H](O)[C@H]1C(=O)N[C@@H](C(C)C)C(=O)N(C)[C@H](C)C(=O)N(CC)[C@@H](C(C)C)C(=O)N[C@@H](CC(C)C)C(=O)N(C)[C@@H](CC(C)C)C(=O)N[C@@H](C)C(=O)O[C@H](C(C)C)C(=O)N(C)[C@@H](CC(C)C)C(=O)N[C@@H](CC(C)C)C(=O)N(C)[C@@H](C(C)C)C(=O)N1C [(Ih)] (cyclo(A[dHiv][NMeL]L[NMeV][MeBmt]V[dNMeA][NEtVal]L[NMeL])) was 12

Lab note: measured IC50 of C/C=C/C[C@@H](C)[C@@H](O)[C@H]1C(=O)N[C@@H](CC)C(=O)N(C)[C@H](C)C(=O)N(C)[C@@H](C(C)C)C(=O)N[C@@H](C(C)C)C(=O)N(C)[C@@H](C)C(=O)N[C@@H](C)C(=O)O[C@H](C(C)C)C(=O)N(C)[C@@H](CC(C)C)C(=O)N[C@@H](CC(C)C)C(=O)N(C)[C@@H](C(C)C)C(=O)N1C [(Ie)] (cyclo(A[dHiv][NMeL]L[NMeV][MeBmt][Abu][dNMeA][NMeV]V[NMeA])) was 0.58

Lab note: measured IC50 of C/C=C/C[C@@H](C)[C@@H](O)[C@H]1C(=O)N[C@@H](CC)C(=O)N(C)[C@H](C)C(=O)N(C)[C@@H](C(C)C)C(=O)N[C@@H](CC(C)C)C(=O)N(C)[C@@H](CC(C)C)C(=O)N[C@@H](C)C(=O)O[C@H](C(C)C)C(=O)N(C)[C@@H](CC(C)C)C(=O)N[C@@H](CC(C)C)C(=O)N(C)[C@@H](C(C)C)C(=O)N1C [(Id)] (cyclo(A[dHiv][NMeL]L[NMeV][MeBmt][Abu][dNMeA][NMeV]L[NMeL])) was 7.9

These measurements were taken from patent US8501683B2.
